Numbers sourced from paper PMC7819943.

Molecular target: OsSMF1 (Oryza sativa, UniProt Q6ZLB0 1-436)
Sequence: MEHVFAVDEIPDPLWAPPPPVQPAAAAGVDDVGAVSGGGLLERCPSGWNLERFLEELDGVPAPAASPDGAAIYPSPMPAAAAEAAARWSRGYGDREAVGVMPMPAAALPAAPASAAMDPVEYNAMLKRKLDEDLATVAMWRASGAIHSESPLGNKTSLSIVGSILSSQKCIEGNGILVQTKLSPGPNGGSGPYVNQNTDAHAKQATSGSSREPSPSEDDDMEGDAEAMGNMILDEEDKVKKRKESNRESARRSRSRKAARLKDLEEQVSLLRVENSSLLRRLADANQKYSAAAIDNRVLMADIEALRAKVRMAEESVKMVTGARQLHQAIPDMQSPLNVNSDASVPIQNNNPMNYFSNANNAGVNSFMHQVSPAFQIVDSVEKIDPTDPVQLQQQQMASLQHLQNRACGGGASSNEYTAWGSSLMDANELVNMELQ
Assay: protein-binding microarray (RPBM); PBS, 2% BSA, 51.3 ng/ul salmon testes DNA, 50 uM zinc acetate, 200 nM TF, 25 C, 1 h; high values mean tight binding
Conditions: protein: recombinant; tags: N-terminal polyhistidine and DsRed monomer fusion (pET32a); chain copies: 2; label: CyDye5-dUTP incorporated in the synthesized complementary strand; 3' TTTTT single-stranded linker to array surface; dsDNA, one strand shown
Over roughly 39,000 sequences, “fluorescence intensity (a.u.)” has its median near 4,300; the highest 2% begin near 39,000. What follows is part of a selection rich in the highest values, with near analogues and random picks from the rest.
result-type: binding signal

Please supply binding signal for each of the following items, keeping them in order.
1. CCTCCGCCTTGTCCGCGTCCACGTCCACGGCCGCCGCCACCGGAGTCACCTAGTGCAG
2. TCCGTGCTACAGCTAGCTACAGATATGTAGTCCGTCATTCCGGAGTCACCTAGTGCAG
3. CCGTCTTTTCTTTCTTCACGCCAGCGTCGCCGTGGTCAAGCGGAGTCACCTAGTGCAG
4. CTCCTCTCCTCTCTTCTCCACATCCACAAGAAATTTCGTACGGAGTCACCTAGTGCAG
5. AAAATTTAATACGACGAATGTTCAAACGGTGCAAGCAAAACGGAGTCACCTAGTGCAG
6. AGCAGAGTGATCTCTGATGGTCACGGGCCGAGAAGGGAAGCGGAGTCACCTAGTGCAG
7. ATTTGCGCTGATATATTATCTAACGTGACACGATTAATCCCGGAGTCACCTAGTGCAG

Key:
1: 6310 fluorescence intensity (a.u.); 2: 45200 fluorescence intensity (a.u.); 3: 3650 fluorescence intensity (a.u.); 4: 3630 fluorescence intensity (a.u.); 5: 45000 fluorescence intensity (a.u.); 6: 45700 fluorescence intensity (a.u.); 7: 6030 fluorescence intensity (a.u.)

For the 3 sequences below, give their binding signal values.
1. CAGTGTTACATCATCGACCGGTTATCATCTTTGTTTCGATCGGAGTCACCTAGTGCAG
2. AGAGAGGGAAGGGAGGGAGGGAGGGAGGAGGGAGAGATCTCGGAGTCACCTAGTGCAG
3. TATGGAGTTTACTATTCTCCTGATTATTACAAAATTTATACGGAGTCACCTAGTGCAG

Key:
1: 3580 fluorescence intensity (a.u.); 2: 6770 fluorescence intensity (a.u.); 3: 30000 fluorescence intensity (a.u.)
